Taken from PubChem BioAssay (NCI).

Tested on: NCI-H23 lung
Experiment: NCI-60 one-dose screen, 48 h
Conditions: 10 µM unless noted
Compounds without any hit were thinned out: in the full panel of roughly 83,000, 20% have a hit. Activity calls are given as the source filed them. The calls were made as follows: active = growth percent below 10; inactive = the rest.
Write down the outcome that applies. Available outcomes: active, inactive

Worked examples follow.
molecule | assayed target | discrete label
COc1nc2ccc(C)cc2cc1-c1nc2c(cnn2-c2ccc(Br)cc2)c(=O)[nH]1 | NCI-H23 lung | inactive
O=C(Nc1nc2ccc(F)cc2s1)c1cccnc1Nc1ccc(Cl)cc1Cl | NCI-H23 lung | active

In this assay, the call recorded for COc1cc(C2CC(c3cccc(Br)c3)=NN2C(C)=O)cc(OC)c1OC (configuration not stated) was what?
inactive

====

Tested on: K-562 leukemia
Assay: NCI-60 one-dose screen, 48 h (100 = growth as untreated, 0 = no growth, -100 = all killed)
Conditions: 10 µM unless noted
This is part of a sample that, as a whole, favours compounds with a hit. Of some 83,000 tested, about 20% had one in any assay.
Class key for growth values: one: < 10%; two: ≥ 10% and < 90%; three: ≥ 90%

Worked examples follow.
smiles repr | discrete label
COc1ccc(CNC(=O)C(=O)[C@H](Cc2ccccc2)NC(=O)c2[nH]c3ccccc3c(=O)c2C)cc1 | three
CCCCn1c(=O)c(-c2cc(-c3ccc(Cl)cc3)nc(-c3ccc(Cl)cc3)c2)cc2cc(C)ccc21 | three
CCc1ccc(Oc2c(-c3ccc(OCc4ccc(Cl)cc4)cc3O)nn(C)c2C(F)(F)F)cc1 | one
c1ccc2c(-c3nc(-c4c[nH]c5ccncc45)cs3)c[nH]c2c1 | one
O=C(Nc1ccc(OS(=O)(=O)c2ccc(F)cc2)cc1)c1ccc(Cl)cc1 | two
O=C(N/N=C/[C@H](O)[C@H](O)[C@H](O)CO)c1ccc(NC(=O)c2cccnc2)cc1 | three

Tag the class for `Cc1ccccc1C(=O)NN`
three

Tag the class for `CCCCCCCCCCCCCCCCCCOc1ccccc1CC(=O)OCC[N+](CC)(CC)CC`
one

Tag the class for `COc1ccc(-c2conc2-c2ccccc2)cc1`
two

====

Test system: EKVX NSCLC
Assay: NCI-60 one-dose screen, 48 h (100 = growth as untreated, 0 = no growth, -100 = all killed)
Settings: 10 µM unless noted
Compounds without any hit were thinned out: in the full panel of roughly 83,000, 20% have a hit.
attribute measured: growth (%)
Give the quantity in %, number only.

Example results:
compound | growth, %
O=C1CCC/C=C\C[C@H]2C=CC(=O)/C2=C/C[C@H](CCc2cccc(C(F)(F)F)c2)O1 | -47.6
CNC(C)[C@H]1CCC2C3CCC4C[C@@H](N(C)C(=O)c5ccccc5)CC[C@]4(C)C3CC[C@@]21C (some centres undefined) | 24.5

compound `O=C(CCN1C(=O)/C(=C/c2ccc(O)cc2)SC1=S)Nc1ccccc1` , growth observed: 100

compound `COc1ccc2c(c1)c(-c1nn3cc(-c4cccs4)nc3s1)cn2C` , growth observed: 66.2

compound `CCCCn1c(=O)c(-c2cc(-c3ccc(Cl)cc3)nc(-c3ccc(Cl)cc3)c2)cc2ccc(Cl)cc21` , growth observed: 105

compound `Cc1ncc(C(=O)Nc2ccc(CN3CCN(C)CC3)c(C(F)(F)F)c2)cc1C#Cc1ccc(N)nc1` , growth observed: 9.23

compound `Cc1cc(N2CCCC2)nc(N(CCCNc2ccnc3cc(Cl)ccc23)Cc2ccccn2)n1` , growth observed: 66.2

compound `c1ccc(OCc2nnc(-c3ccc(Oc4ccccc4)cc3)o2)cc1` , growth observed: 96.6

compound `CCCCCCn1c(-c2ccc(C(=O)O/N=C(\N)c3ccc4c(c3)OCO4)cc2)nc(-c2ccccc2)c1-c1ccccc1` , growth observed: -33.5

====

Tested on: NCI/ADR-RES ovarian
Test: NCI-60 one-dose screen, 48 h
Conditions: 10 µM unless noted
This is part of a sample that, as a whole, favours compounds with a hit. Of some 83,000 tested, about 20% had one in any assay. Activity calls are given as the source filed them. The calls were made as follows: active = growth percent below 10; inactive = the rest.
Write down the outcome that applies. Available outcomes: yes (1) for active, no (0) for inactive

molecule | assayed target | discrete label
CNc1nc2c(s1)C(c1cc(F)ccc1F)CC(=O)N2 (centres undefined) | NCI/ADR-RES ovarian | no (0)
CCOc1ccc2nc(SCc3nc4n(n3)S(=O)(=O)c3ccccc3N4C)sc2c1 | NCI/ADR-RES ovarian | yes (1)
O=c1c2cc(F)ccc2sc2c(N3CCCCC3)nc3ccccc3c12 | NCI/ADR-RES ovarian | no (0)
CS(=O)(=O)N(c1cc(-c2ccc3ncnc(Nc4ccc(F)c(Cl)c4)c3c2)cnc1Cl)S(C)(=O)=O | NCI/ADR-RES ovarian | no (0)
O=C(Cc1ccc(F)c(Cl)c1)Nc1cc(C2(C(F)(F)F)CC2)nn1Cc1ccccc1 | NCI/ADR-RES ovarian | no (0)
CS(=O)(=O)Nc1cc(-c2ccc3ncnc(Nc4cccc(Cl)c4F)c3c2)cnc1Cl | NCI/ADR-RES ovarian | no (0)
COc1cc(C(=O)N/N=C/c2cc3cc(OCc4ccccc4)ccc3nc2OC)cc(OC)c1OC | NCI/ADR-RES ovarian | no (0)
CC(=O)N1CCN(c2ccc(OCC3CO[C@](Cn4ccnc4)(c4ccc(Cl)cc4Cl)O3)cc2)CC1 (some centres undefined) | NCI/ADR-RES ovarian | no (0)

Now for another entry.
In this assay, the call recorded for `Cc1[nH]c(C(=O)Nc2ccc(C(=O)N3CCNCC3)cc2OC(C)C)c(Cl)c1Cl` was what?
no (0)

====

Tested on: MOLT-4 leukemia
Assay: NCI-60 one-dose screen, 48 h (100 = growth as untreated, 0 = no growth, -100 = all killed)
Conditions: 10 µM unless noted
About 83,000 compounds went through this panel and 20% of them were active in at least one assay; those are over-represented in the sample as a whole.
The entries below are paired with their reported growth.
Give the quantity in %, number only.

compound | assayed target | growth / %
CCc1ccc2nc(NC(=O)Cc3csc(NC(=O)c4ccco4)n3)sc2c1 | MOLT-4 leukemia | 39.9
O=S(=O)(NCCCNc1cc(-c2c(-c3cccc(O)c3)nc3sccn23)ccn1)c1cccc2ccccc12 | MOLT-4 leukemia | 26.4

compound `COc1ccc(C(=O)/C=C/c2sc(Cl)nc2Cl)cc1` , growth observed: 11.6

compound `C=CCNc1ccc2c3c(cccc13)C(=O)N(N1C(=O)c3cccc4cccc(c34)C1=O)C2=O` , growth observed: 101

compound `Brc1ccc2[nH]cc(-c3nc(-c4c[nH]c5ccncc45)cs3)c2c1` , growth observed: -58.4

compound `Cc1[nH]c(C(=O)Nc2ccc(C(=O)N3CCNCC3)cc2OC(C)C)c(Cl)c1Cl` , growth observed: 54.1

compound CCN1C(=O)N(CC)C2Nn3c(s/c(=C4\C(=O)Nc5ccccc54)c3=O)=NC21 (stereo unspecified) , growth observed: 59

compound `Cc1c(C(=O)/C=C/Nc2c(Cl)cc(S(N)(=O)=O)cc2Cl)sc2nc3ccccc3n12` , growth observed: 106

compound `Cc1c(C(=O)N[C@@H](Cc2ccccc2)C(=O)C(=O)NCc2ccc(F)cc2)[nH]c2ccccc2c1=O` , growth observed: 87.5

compound CC1(C)C2CC1C1(/C=N\Nc3ccccc3)C(C2)C(C#N)(C#N)C1(C#N)C#N (stereo unspecified) , growth observed: 95.7

compound CCc1cccc2c3c(sc12)C(c1ccc(F)cc1)C(C#N)=C(N)O3 (stereo unspecified) , growth observed: 17.3

compound `CNCCCNc1nc2ccccc2c2c(=O)c3cc(OC)ccc3sc12` , growth observed: 48.3

compound `CCOC(=O)/C=C1\S/C(=N\Nc2ccc([N+](=O)[O-])cc2[N+](=O)[O-])N(Cc2ccccc2)C1=O` , growth observed: 67.5

compound `COc1ccc(S(=O)(=O)n2c3ccccc3n3ncc(-c4nnc(C)o4)c23)cc1` , growth observed: 24.1

compound `O=C(Nc1nc2ccc(F)cc2s1)c1cccnc1Nc1ccc(Cl)cc1Cl` , growth observed: 46

compound `O=c1c2cc(F)ccc2sc2c(NCCO)nc3ccccc3c12` , growth observed: 104

compound `NCCCNc1nc2ccccc2c2c(=O)c3cc(C(F)(F)F)ccc3sc12` , growth observed: -20.1

compound `O=CN(SSN(C=O)C1CCCCC1)C1CCCCC1` , growth observed: 65.2

compound `CCCCCCNC(=O)Oc1ccc(/C(=C(\C)c2ccc(Cl)cc2)c2ccc(OCCN3CCCCC3)cc2)cc1` , growth observed: 10.9

compound O=C(O)C(c1ccccc1)N1C(=O)CSC1=S (stereo unspecified) , growth observed: 99.9

compound `O=C1/C(=C/c2ccccc2[N+](=O)[O-])Oc2ccc(O)c(O)c21` , growth observed: 18.1

====

The entries below are paired with their reported growth.
Test system: KM12 colon
Assay: NCI-60 one-dose screen, 48 h (100 = growth as untreated, 0 = no growth, -100 = all killed)
Conditions: 10 µM unless noted
Compounds without any hit were thinned out: in the full panel of roughly 83,000, 20% have a hit.
Give the quantity in %, number only.

molecule | attribute measured | endpoint value
Cc1ccc(NC2=C(Cl)C(=O)c3nc(C)ccc3C2=O)cc1 | growth | 36.6

molecule `CCN(CC)CCNc1nc2ccccc2c2c(=O)c3cc(Cl)ccc3sc12` , growth observed: 26.5

molecule `O=c1c2cc(F)ccc2sc2c(N3CCNCC3)nc3ccc(F)cc3c12` , growth observed: -78.4

molecule `Cc1c(C(=O)N[C@@H](Cc2ccccc2)C(=O)C(=O)NCc2ccc(F)cc2)[nH]c2ccccc2c1=O` , growth observed: 101
